These data points were gathered from paper PMC11859184.

Some compounds, each annotated with its measured tissue uptake at 1 h.
EXPERIMENTAL_PROTOCOL: Ex vivo biodistribution of 68Ga-labeled tracers in PC-3 tumor-bearing mice
APPLIED_CONDITIONS: mouse, pancreas, intravenous, 100 ug; 1 h pi, blocked (100 µg blocking agent co-injected); read-out: Pancreas uptake
Unit %ID/g implied. Number only.

*Q* Which measured tissue uptake at 1 h value corresponds to CC(C)C[C@H](NC(=O)[C@H](Cc1cnc[nH]1)N(C)C(=O)CNC(=O)[C@@H](NC(=O)[C@H](C)NC(=O)[C@H](Cc1c[nH]c2ccccc12)NC(=O)[C@H](CCC(N)=O)NC(=O)[C@@H](Cc1ccccc1)NC(=O)CN1CCC(NC(=O)CN2CCN(CC(=O)O)CCN(CC(=O)O)CCN(CC(=O)O)CC2)CC1)C(C)(C)C)C(=O)N1CC(F)(F)C[C@H]1C(N)=O [[^68Ga]Ga-LW02060, metal not drawn] ?
*A* 2.25

*Q* And for CC(C)C[C@@H](CN1CC(F)(F)C[C@H]1C(N)=O)NC(=O)[C@H](Cc1c[nH]cn1)NC(=O)CN(C)C(=O)[C@@H](NC(=O)[C@H](C)NC(=O)[C@H](Cc1c[nH]c2ccccc12)NC(=O)[C@H](CCC(N)=O)NC(=O)[C@@H](Cc1ccccc1)NC(=O)CN1CCC(NC(=O)CN2CCN(CC(=O)O)CCN(CC(=O)O)CCN(CC(=O)O)CC2)CC1)C(C)C [[^68Ga]Ga-LW02080, metal not drawn] ?
*A* 0.51

====

EXPERIMENTAL_PROTOCOL: Ex vivo biodistribution of 68Ga-labeled tracers in PC-3 tumor-bearing mice
APPLIED_CONDITIONS: male, NOD.Cg-Rag1^tm1Mom Il2rg^tm1Wjl/SzJ (NRG), mouse, tumor/bone, iv, total radioactivity, 1 h pi, blocked (100 µg blocking agent co-injected); read-out: Tumor/bone uptake ratio
The following molecules are shown together with reported tissue to tissue ratio at 1 h values.

- MOLECULE: "CC(C)C[C@@H](CN1CC(F)(F)C[C@H]1C(N)=O)NC(=O)[C@H](Cc1c[nH]cn1)NC(=O)CN(C)C(=O)[C@@H](NC(=O)[C@H](C)NC(=O)[C@H](Cc1c[nH]c2ccccc12)NC(=O)[C@H](CCC(N)=O)NC(=O)[C@@H](Cc1ccccc1)NC(=O)CN1CCC(NC(=O)CN2CCN(CC(=O)O)CCN(CC(=O)O)CCN(CC(=O)O)CC2)CC1)C(C)C [[^68Ga]Ga-LW02080, metal not drawn]"
  tissue to tissue ratio at 1 h: 5.52

The record that follows has no tissue to tissue ratio at 1 h shown yet.
*Q* Given CC(C)C[C@H](NC(=O)[C@H](Cc1cnc[nH]1)N(C)C(=O)CNC(=O)[C@@H](NC(=O)[C@H](C)NC(=O)[C@H](Cc1c[nH]c2ccccc12)NC(=O)[C@H](CCC(N)=O)NC(=O)[C@@H](Cc1ccccc1)NC(=O)CN1CCC(NC(=O)CN2CCN(CC(=O)O)CCN(CC(=O)O)CCN(CC(=O)O)CC2)CC1)C(C)(C)C)C(=O)N1CC(F)(F)C[C@H]1C(N)=O [[^68Ga]Ga-LW02060, metal not drawn] , state its recorded tissue to tissue ratio at 1 h.
*A* 22.3

====

Examples of compounds with documented tissue uptake at 4 h follow.
EXPERIMENTAL_PROTOCOL: Ex vivo biodistribution of 177Lu-labeled ligands in PC-3 tumor-bearing mice
APPLIED_CONDITIONS: mouse, fat, intravenous, 4 h pi, n = 5; read-out: Fat uptake
// note: answer is a bare numeric in %ID/g

- COMPOUND: "CC(C)C[C@H](NC(=O)[C@H](Cc1cnc[nH]1)N(C)C(=O)CNC(=O)[C@@H](NC(=O)[C@H](C)NC(=O)[C@H](Cc1c[nH]c2ccccc12)NC(=O)[C@H](CCC(N)=O)NC(=O)[C@@H](Cc1ccccc1)NC(=O)CN1CCC(NC(=O)CN2CCN(CC(=O)O)CCN(CC(=O)O)CCN(CC(=O)O)CC2)CC1)C(C)(C)C)C(=O)N1CC(F)(F)C[C@H]1C(N)=O [[^177Lu]Lu-LW02060, metal not drawn]"
  NUMERIC_RESULT: 0.02

Let us move to another entry and its tissue uptake at 4 h.
*Q* Any idea what its tissue uptake at 4 h is? The compound is CC(C)C[C@@H](CN1CC(F)(F)C[C@H]1C(N)=O)NC(=O)[C@H](Cc1c[nH]cn1)NC(=O)CN(C)C(=O)[C@@H](NC(=O)[C@H](C)NC(=O)[C@H](Cc1c[nH]c2ccccc12)NC(=O)[C@H](CCC(N)=O)NC(=O)[C@@H](Cc1ccccc1)NC(=O)CN1CCC(NC(=O)CN2CCN(CC(=O)O)CCN(CC(=O)O)CCN(CC(=O)O)CC2)CC1)C(C)C [[^177Lu]Lu-LW02080, metal not drawn]
*A* 0.01
